tgt: T1, P11-AA
T1 chain: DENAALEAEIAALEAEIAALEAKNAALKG
test_summary: two-hybrid library CCmax;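 also: natural log of median RNA to DNA barcode read ratio; higher means stronger binding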
condition_context: mean of both orientations
# if value of interaction score reaches -1, tag true (1); if it stays below, tag false (0)

# input Does the binder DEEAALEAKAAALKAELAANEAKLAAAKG [AP6-AA] have recorded interaction score that is -1 or more?
# output false (0)

# input hey, is interaction score for this one >= -1? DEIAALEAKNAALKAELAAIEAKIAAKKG [AP5-AA]
# output true (1)

# input Please tell me: is the binder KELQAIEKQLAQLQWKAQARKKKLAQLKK [4H_APH] at or over -1 in terms of interaction score?
# output false (0)

# input Would you say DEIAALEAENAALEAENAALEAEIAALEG [P1-AA] shows interaction score at minimum -1?
# output false (0)

# input Please check the record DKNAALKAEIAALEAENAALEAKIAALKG [4H3606-AA] and state if its interaction score is at or above -1.
# output false (0)

# input Hi, just wondering whether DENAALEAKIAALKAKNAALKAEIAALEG [4H1401-AA] shows interaction score of -1 or higher.
# output true (1)

Every entry's value here was drawn from paper PMC10397247.
